Catalogue of molecules with associated inhibition
# System: virus influenza A
# methodDescription: microbe, parasite or virus in culture
# Type: cell-based
# Set-up: dose or concentration left out as unconfirmed
# testSettings: Influenza A virus, MDCK, dilution of virus 10^-3, read-out: % of inhibition of influenza A virus reproduction
Expressed in %, but write only the number.

molecule	inhibition [%]
CCOC(=O)c1c(CNc2ccccc2)n(C)c2cc(-c3ccccc3)c3c(c12)CN(C)CO3	90
CCOC(=O)c1c(CSc2ccccc2)n(C)c2cc(Br)c3c(c12)CN(Cc1ccccc1)CO3	98
CCOC(=O)c1c(CN2CCC(C)CC2)n(Cc2ccccc2)c2cc(Br)c3c(c12)CN(C)CO3	85

Q. Sample CCOC(=O)c1c(CN2CCN(CCO)CC2)n(C)c2cc(Br)c3c(c12)CN(C)CO3 — what was its inhibition?
A. 95

Q. inhibition lookup needed for CCOC(=O)c1c(CSc2ccccc2)n(C)c2cc(Br)c3c(c12)CN(C)C(c1ccccc1)O3 (centres unmarked) , thanks.
A. 62
